- Tested on: HMOX1
- experimental-details: HMOX1 Protein Assay (immunostaining of HO-1 in NHLF cells, GE InCell 1000)
- Type: cell-based
- condition-summary: Homo sapiens, fold change above DMSO treated cells, 5 μM compound, 16 h
Where a name gives a salt, the structure may show the parent alone.
quantity-measured: fold induction at 5 µM
Just the number, please.

The following compounds have reported results that may help.
1. CN1CCC(N(C)C(=O)CNC(=O)c2ccc3c(c2)nc(Nc2nc4ccc(Cl)cc4s2)n3C)C1 (stereo not drawn) [Example 395] :: 72
2. COCCNC(=O)c1ccc2c(c1)nc(Nc1nc3cc(F)ccc3s1)n2C [Example 123] :: 12.7
3. CN(C)CC1CCCN(C(=O)CNC(=O)c2ccc3c(c2)nc(Nc2nc4ccc(Cl)cc4s2)n3C)C1 (stereo not drawn) [Example 461] :: 27.1
4. Cn1c(Nc2nc3ccc(OC(F)(F)F)cc3s2)nc2cc(C(=O)NCC(=O)N3CCC(CF)CC3)ccc21 [Example 448] :: 36.7
5. Cn1c(Nc2nc3ccc(Cl)cc3s2)nc2cc(C(=O)N[C@@H]3CCNC3)ccc21 [Example 290, hydrochloride] :: 22.5
6. Cn1c(Nc2nc3ccc(Cl)cc3s2)nc2cc(C(=O)NCCOCCCO)ccc21 [Example 248] :: 58.7
7. CN(C)[C@H]1CCN(C(=O)CNC(=O)c2ccc3c(c2)nc(Nc2nc4ccc(Cl)cc4s2)n3C)C1 [Example 418] :: 63.3
8. Cn1c(Nc2nc3ccc(OC(F)(F)F)cc3s2)nc2cc(C(=O)NCCC(=O)O)ccc21 [Example 98] :: 13.8
9. COC(=O)c1ccc2c(c1)nc(Nc1nc3ccc(SC(F)(F)F)cc3s1)n2C [Example 132] :: 5.8
10. Cn1c(Nc2nc3ccc(OC(F)(F)F)cc3s2)nc2cc(C(=O)NCCOCCO)ccc21 [Example 46] :: 17.9

Request: # get_value(readout='fold induction at 5 µM', item= Cn1c(Nc2nc3ccc(Cl)cc3s2)nc2cc(C(=O)N[C@H]3CCCNC3)ccc21 [Example 310, hydrochloride] )
Result: 24.6

Request: # get_value(readout='fold induction at 5 µM', item= CCn1c(Nc2nc3ccc(C(F)(F)F)cc3s2)nc2cc(C(=O)NCCOC)ccc21 [Example 182] )
Result: 13
